Quick reference: FACS reading of the listed items.
- Tested Target: T1, Claudin 18.2 (CLDN18.2), expressed on CHOS-CLDN 18.2 / HEK293-CLDN 18.2 / HCC827-CLDN 18.2 cells (human, UniProt P56856-2 1-261)
- T1 construct: whole, on cells; The species is not repeated for the CHOS-CLDN 18.2 cells; also called claudin-18A2
- Experiment Notes: FACS, CHOS-CLDN18.2 cells, 20 µg/ml
Reply briefly: the number, and no unit.

Binder: QP024025 (antibody, human IgG1, V domains shown, also called IMAB362; 175D10(IMAB362)) VH: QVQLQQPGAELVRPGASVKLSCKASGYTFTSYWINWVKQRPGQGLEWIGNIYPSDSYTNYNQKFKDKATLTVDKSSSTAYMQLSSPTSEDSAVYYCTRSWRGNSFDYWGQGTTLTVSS VL: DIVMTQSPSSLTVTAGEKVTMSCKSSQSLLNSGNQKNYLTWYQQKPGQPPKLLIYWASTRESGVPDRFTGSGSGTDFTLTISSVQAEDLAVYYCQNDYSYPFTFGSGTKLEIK
Experimental Result: 72300
//
Binder: QP14441441 (antibody, human IgG1, kappa, V domains shown, Humanized from QP192193) VH: QVQLVQSGAEVKKPGASVKVSCKASGYAFSSYWMNWVRQAPGQGLEWIGQIYPGNGDTTYNGKFKGRVTMTADKSTSTVYMELSSLRSEDTAVYYCARFVKGNAMDYWGQGTLVTVSS VL: DIVMTQSPDSLAVSLGERATISCKSSQSLLNSGNQKNYLTWYQQKPGQPPKLLIYWASTRESGVPDRFSGSGSGIDFTLTISSVQAEDVAVYYCQNAYSYPFTFGQGTKLEIKR
Experimental Result: 175000

With those in mind, consider the next binder.
Find the recorded FACS reading belonging to QP192193 (antibody, human IgG1, V domains shown, Chimeric; also called 40F1; mouse-derived chimeric antibody QP192193) VH: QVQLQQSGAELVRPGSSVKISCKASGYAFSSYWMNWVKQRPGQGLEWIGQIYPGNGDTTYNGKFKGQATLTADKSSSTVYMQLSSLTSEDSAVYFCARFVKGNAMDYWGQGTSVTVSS VL: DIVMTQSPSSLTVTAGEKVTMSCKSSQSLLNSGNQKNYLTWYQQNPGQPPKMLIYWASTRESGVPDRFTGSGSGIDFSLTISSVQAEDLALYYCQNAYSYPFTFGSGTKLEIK and report it.
155000

These data points were gathered from patent US20230183352A1.
